- Protocol Description: Blood levels in mice after subcutaneous administration
- Type: in vivo
- Test Context: mouse, sc 20 mg./kg., 30', read-out: Blood level
Readout Type: concentration at 0.5 h
Write the numeric value and append its unit.

• Cn1nnnc1SCC1=C(C(=O)O)N2C(=O)[C@@H](NC(=O)[C@H](O)c3ccccc3)[C@H]2SC1 [Cefamandole, cefamandole, reference compound] = 4100 ng/mL

Next, consider the following compound.
// field: concentration at 0.5 h; key: O=C(O)Cn1nc2ccc(SCC3=C(C(=O)O)N4C(=O)C(NC(=O)[C@H](O)c5ccccc5)[C@H]4SC3)nn2c1=O (some centres unmarked) ; value = 6000 ng/mL
